tested on: ACHN renal; test: NCI-60 one-dose screen, 48 h (100 = growth as untreated, 0 = no growth, -100 = all killed); settings: 10 µM unless noted
This is part of a sample that, as a whole, favours compounds with a hit. Of some 83,000 tested, about 20% had one in any assay. Calls of active or inactive are those of the source. Rule for the calls: active = growth percent below 10; inactive = the rest.
measurement name: growth

O=C(CNCCN1CCOCC1)N1c2cccc3cccc(c23)N(C(=O)CNCCN2CCOCC2)C1c1cn(-c2ccccc2)nc1-c1cccc([N+](=O)[O-])c1 | 88.7% (inactive)
C=C1C(=O)O[C@H]2[C@H]1CC/C(CNC(=O)CCc1ccc(OC)cc1)=C\CC[C@@]1(C)O[C@@H]21 | 31.6% (inactive)
Cc1ccc(CNc2c3ccccc3nc3cc(NC(=O)CCN4CCCC4)ccc23)cc1 | 12.3% (inactive)
COc1cc(/C=C\c2cc(OC)c(OC)c(OC)c2)cc(NC(=O)/C=C/c2cc(OC)c(OC)c(OC)c2)c1OC | 52.7% (inactive)
c1ccc(Cn2cnc3ccc(-c4nc(-c5ccc6c(c5)ncn6C5CCCCC5)cn5ccnc45)cc32)cc1 | 19.9% (inactive)
CN(C)CCn1c2ccc(Br)cc2c2nc3ccccc3nc21 | 9.3% (active)
CCN(CC)CCOc1ccc(NC(=O)C(C(C)C)N2C(=O)/C(=C/c3ccc(Br)cc3)SC2=S)cc1 (stereo not drawn) | 62.1% (inactive)

Could you now consider this next molecule?
Task: Record request: growth value, item O=C1/C=C/[C@@H](O)[C@@H]2C[C@@H](O)C[C@H]2/C=C/CCC[C@H](CCc2cccc3ccccc23)O1
Result: 6.35% (active)

###

tested on: EKVX NSCLC; assay: NCI-60 one-dose screen, 48 h; settings: 10 µM unless noted
This is part of a sample that, as a whole, favours compounds with a hit. Of some 83,000 tested, about 20% had one in any assay. Calls of active or inactive are those of the source. The calls were made as follows: active = growth percent below 10; inactive = the rest.
Permitted responses: label 1 (active), label 0 (inactive)

# example entries with known answers
N=C1C(c2nc3ccccc3s2)=C(O)CN1c1cc(Cl)cc(Cl)c1 | label 0
O=C1c2ccc3c4c(ccc(c24)C(=O)N1CCCNCc1ccccc1)C(=O)N(CCCNCc1ccccc1)C3=O | label 1
COC(=O)c1ccc2c(c1)[n+](=O)c(C(C)=O)c(C(F)(F)F)n2[O-] | label 1

Next item in the queue.
Task: How did this test come out for Cc1cnc(C(=O)Nc2nc3ccc(S(=O)(=O)Nc4ccc(C5(C(F)(F)F)CC5)cc4)cc3[nH]2)cn1 ?
Result: label 0

###

tested on: SNB-75 CNS; experiment: NCI-60 one-dose screen, 48 h (100 = growth as untreated, 0 = no growth, -100 = all killed); conditions: 10 µM unless noted
Compounds without any hit were thinned out: in the full panel of roughly 83,000, 20% have a hit.
Reported values of growth for individual entries
Field format: number, assumed %, no unit text.

Would you please look over these solved cases?
COc1ccc(C(C)=O)c(OC)c1 | 91.7
CCOc1cccc(-c2nc(N)nc(Nc3ccccc3SSc3ccccc3Nc3nc(N)nc(-c4cccc(OCC)c4)n3)n2)c1 | 90.5
CCNC(=O)Oc1ccc(/C(=C(\C)c2ccccc2)c2ccc(OCCCN(C)C)cc2)cc1 | 90.9

Please turn your attention to the following entry.
Task: Can you share its growth? I mean this compound: O=S(=O)(NCCCNc1nccc(-c2c(-c3cccc(O)c3)nc3occn23)n1)c1ccc(Cl)cc1
Result: 92
